meta.source: patent US9926317B2

# STUDY SYSTEM: ROMK (Kir1.1) channel (Homo sapiens)
# Sequence (P48048 1-391): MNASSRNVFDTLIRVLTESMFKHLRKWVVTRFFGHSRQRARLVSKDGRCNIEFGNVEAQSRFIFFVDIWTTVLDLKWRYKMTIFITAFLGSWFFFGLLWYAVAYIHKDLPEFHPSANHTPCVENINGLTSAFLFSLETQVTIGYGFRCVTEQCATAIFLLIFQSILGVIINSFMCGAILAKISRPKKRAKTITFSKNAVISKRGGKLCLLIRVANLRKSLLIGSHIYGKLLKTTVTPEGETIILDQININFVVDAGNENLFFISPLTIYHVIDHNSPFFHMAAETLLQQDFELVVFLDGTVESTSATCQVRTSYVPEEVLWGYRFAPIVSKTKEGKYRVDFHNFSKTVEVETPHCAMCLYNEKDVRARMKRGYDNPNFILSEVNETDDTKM
# PROTOCOL NOTES: Thallium Flux Assay
MEASUREMENT LABEL: IC50 (nM)

1. C[C@H]1CC2(CCN(C[C@@H](O)c3ccc(-n4ncnn4)cc3)CC2)C(=O)N1C1=CC(=O)OC1
2. CC1=C(N2CCC3(CCN(CC(O)c4ccc(-n5cnnc5)nc4)CC3)C2=O)COC1=O (racemic)
3. CC1=C(N2CCC3(CCN(C[C@H](O)c4ccc(-n5ncnn5)cc4)CC3)C2=O)COC1=O
Exercise: Ordering criterion: IC50; begin with the maximum. Use the labels to give the ranking in the order requested.
Key: 2, 3, 1

I. CC1=C(N2CCC3(CCN(C[C@@H](O)c4ccc(-n5ncnn5)cc4)CC3)C2=O)COC1=O
II. CC1=C(N2CCC3(CCN(CC(O)c4ccc(-n5cnnc5)cc4)CC3)C2=O)COC1=O (racemic)
Exercise: // max by IC50 over [ I , II ] State your choice using its label.
Key: II
